assayed system: Glutamate receptor ionotropic, AMPA (Rattus norvegicus, UniProt P19490+P19491+P19492+P19493)
pIC50: −log10 of the molar value.
Attribute: pIC50
property measured: pIC50

{"smiles repr": "NCCNCCCCNCC1CCN(C(=O)Cc2cccc3ccccc23)CC1", "value reported": 6.48}
{"smiles repr": "CN1CCC(CNCCCCNCC2CCN(C(=O)Cc3cccc4ccccc34)CC2)CC1", "value reported": 6.24}
{"smiles repr": "O=C(Cc1cccc2ccccc12)N1CCC(CNCCCCNCCCn2ccnc2)CC1", "value reported": 6.59}
{"smiles repr": "O=C(Cc1cccc2ccccc12)NCC(=O)N1CCC(CNCCCCNCC2CCNCC2)CC1", "value reported": 6.31}
